Source: patent US20170342025A1

Catalogue of melting point values
ENDPOINT_LABEL: melting point

COMPOUND: Cl.N=C(N)N/N=C/c1cccc(OCc2cccc(Cl)c2Cl)c1Cl [Compound 51d]
RESULT: 250 to 253 °C

COMPOUND: Cl.N=C(N)N/N=C/c1cccc(OCc2ccc(Cl)cc2)c1Cl [Compound 51c]
RESULT: 237 to 239 °C

COMPOUND: COc1cccc(COc2cccc(/C=N/NC(=N)N)c2Cl)c1Cl.Cl [Compound 51a]
RESULT: 258 to 260 °C

COMPOUND: Cl.N=C(N)N/N=C/c1cccc(OCc2ccc(C(F)(F)F)cc2)c1 [Compound 49d]
RESULT: 176 to 179 °C

COMPOUND: Cl.N=C(N)N/N=C/c1cccc(OCc2cccc(C(F)(F)F)c2Cl)c1Cl [Compound 51e]
RESULT: 274 to 277 °C

COMPOUND: Cl.N=C(N)N/N=C/c1cccc(OCc2ccc(Cl)c(Cl)c2)c1Cl [Compound 51h]
RESULT: 230 to 233 °C

COMPOUND: Cl.N=C(N)N/N=C/c1cccc(OCc2ccccc2)c1Cl [Compound 51b]
RESULT: 203 to 205 °C

COMPOUND: N=C(N)Nc1cccc2c1CCCC2.O=C(O)C(F)(F)F [Compound 23d]
RESULT: 153 to 155 °C
